- measured.on: CSNK1G2 (human)
- experimental.details: KINOMEscan competition binding
- reported.conditions: compound 10.0 µM
quantity: kinase still bound, per cent of control (%)
Form entry: value (%) — number only.

Query string: Give the reported kinase still bound, per cent of control for CCN1CCN(C(=O)Cc2ccc(Nc3ncc(F)c(Nc4ccc(C(=O)Nc5ccccc5Cl)cc4)n3)cc2)CC1 (system: CSNK1G2 (human)).
Result string: 58

Query string: Give the reported kinase still bound, per cent of control for CN(C)C/C=C/C(=O)Nc1ccc(C(=O)Nc2cccc(Nc3nccc(-c4cccnc4)n3)c2)cc1 (system: CSNK1G2 (human)).
Result string: 100

New cases:
Query string: Give the reported kinase still bound, per cent of control for C=CC(=O)Nc1ccc(CN(C(=O)Nc2c(Cl)c(OC)cc(OC)c2Cl)c2cc(Nc3ccc(N4CCN(C)CC4)cc3)ncn2)cc1 (system: CSNK1G2 (human)).
Result string: 100

* * *

- Tested on: EGFR (human), P00533 [747-751 del / S ins]
- experimental.details: KINOMEscan competition binding
- reported.conditions: compound 10.0 µM
quantity: kinase still bound, per cent of control (%)
Form entry: value (%) — number only.

Consider the worked cases shown below.
Query string: GET /values?readout=kinase still bound, per cent of control&item= COc1cc2ncn(-c3cc(OCc4ccccc4C(F)(F)F)c(C(N)=O)s3)c2cc1OC
Result string: 100

Query string: GET /values?readout=kinase still bound, per cent of control&item= C=CC(=O)Nc1cccc(Oc2nc(Nc3ccc(N4CCN(C)CC4)cc3OC)ncc2Cl)c1
Result string: 0

Query string: GET /values?readout=kinase still bound, per cent of control&item= C=CC(=O)Nc1cc(-n2c(=O)ccc3cnc4ccc(-c5cn[nH]c5)cc4c32)ccc1C
Result string: 63

Query string: GET /values?readout=kinase still bound, per cent of control&item= CCN1CCN(Cc2ccc(Nc3ncc4c(n3)N(C)c3ccccc3C(=O)N4C)cc2C(F)(F)F)CC1
Result string: 95

Query string: GET /values?readout=kinase still bound, per cent of control&item= C=CC(=O)Nc1cc(NC(=O)c2ccc(C)c(NC(=O)c3ccno3)c2)cc(C(F)(F)F)c1
Result string: 100

Continue with the molecule presented below.
Query string: GET /values?readout=kinase still bound, per cent of control&item= COc1cc2ncnc(Nc3cccc(Cl)c3)c2cc1OC
Result string: 3.2

* * *

- System: EGFR (human), P00533 [T790M/L858R]
- experimental.details: KINOMEscan competition binding
- reported.conditions: compound 10.0 µM
quantity: kinase still bound, per cent of control (%)
Form entry: value (%) — number only.

Query string: GET /values?readout=kinase still bound, per cent of control&item= COc1cc(N2CCN(C)CC2)ccc1Nc1ncc2c(n1)N(C)c1ccccc1C(=O)N2C
Result string: 100

Query string: GET /values?readout=kinase still bound, per cent of control&item= Cc1ccc(NC(=O)c2cccc(C(C)(C)C#N)c2)cc1Nc1ccc2ncn(C)c(=O)c2c1
Result string: 99

Query string: GET /values?readout=kinase still bound, per cent of control&item= COc1cc2c(Nc3ccc(NC(=O)c4ccccc4)cc3)ncnc2cc1OCCCN1CCOCC1
Result string: 85

* * *

- measured.on: EPHA2 (human)
- experimental.details: KINOMEscan competition binding
- reported.conditions: compound 10.0 µM
Field 'label' (enum: MET / NOT MET). Set to MET when kinase still bound, per cent of control is strictly under 90%; else NOT MET.

Query string: Does this compound meet the criterion kinase still bound, per cent of control < 90%? COCC(=O)NC/C=C/c1ccc2ncnc(Nc3ccc(Oc4ccc(C)nc4)c(C)c3)c2c1
Result string: NOT MET

* * *

- measured.on: CSNK1G3 (human)
- experimental.details: KINOMEscan competition binding
- reported.conditions: compound 10.0 µM
Overview of reported kinase still bound, per cent of control across a group of compounds:
State the result as a value with its unit after it.

Query string: Give the reported kinase still bound, per cent of control for N#CCNC(=O)c1ccc(-c2ccnc(Nc3ccc(N4CCOCC4)cc3)n2)cc1 (system: CSNK1G3 (human)).
Result string: 100%

Query string: Give the reported kinase still bound, per cent of control for C=CC(=O)Nc1cc(-n2c(=O)ccc3cnc4ccc(-c5cn[nH]c5)cc4c32)ccc1C (system: CSNK1G3 (human)).
Result string: 84%

Query string: Give the reported kinase still bound, per cent of control for NC(=O)Nc1cc(-c2cccc(F)c2)sc1C(=O)N[C@@H]1CCCNC1 (system: CSNK1G3 (human)).
Result string: 4.6%

Query string: Give the reported kinase still bound, per cent of control for CCN1CCN(C(=O)Cc2ccc(Nc3ncc(F)c(Nc4ccc(C(=O)Nc5ccccc5Cl)cc4)n3)cc2)CC1 (system: CSNK1G3 (human)).
Result string: 100%

Query string: Give the reported kinase still bound, per cent of control for CCN(CC)CCCCNc1ncc2c(n1)N(C)C(=O)N(c1c(Cl)c(OC)cc(OC)c1Cl)C2 (system: CSNK1G3 (human)).
Result string: 100%

* * *

- measured.on: PLK4 (human) (UniProt O00444)
- Sequence (O00444 whole entry, looked up): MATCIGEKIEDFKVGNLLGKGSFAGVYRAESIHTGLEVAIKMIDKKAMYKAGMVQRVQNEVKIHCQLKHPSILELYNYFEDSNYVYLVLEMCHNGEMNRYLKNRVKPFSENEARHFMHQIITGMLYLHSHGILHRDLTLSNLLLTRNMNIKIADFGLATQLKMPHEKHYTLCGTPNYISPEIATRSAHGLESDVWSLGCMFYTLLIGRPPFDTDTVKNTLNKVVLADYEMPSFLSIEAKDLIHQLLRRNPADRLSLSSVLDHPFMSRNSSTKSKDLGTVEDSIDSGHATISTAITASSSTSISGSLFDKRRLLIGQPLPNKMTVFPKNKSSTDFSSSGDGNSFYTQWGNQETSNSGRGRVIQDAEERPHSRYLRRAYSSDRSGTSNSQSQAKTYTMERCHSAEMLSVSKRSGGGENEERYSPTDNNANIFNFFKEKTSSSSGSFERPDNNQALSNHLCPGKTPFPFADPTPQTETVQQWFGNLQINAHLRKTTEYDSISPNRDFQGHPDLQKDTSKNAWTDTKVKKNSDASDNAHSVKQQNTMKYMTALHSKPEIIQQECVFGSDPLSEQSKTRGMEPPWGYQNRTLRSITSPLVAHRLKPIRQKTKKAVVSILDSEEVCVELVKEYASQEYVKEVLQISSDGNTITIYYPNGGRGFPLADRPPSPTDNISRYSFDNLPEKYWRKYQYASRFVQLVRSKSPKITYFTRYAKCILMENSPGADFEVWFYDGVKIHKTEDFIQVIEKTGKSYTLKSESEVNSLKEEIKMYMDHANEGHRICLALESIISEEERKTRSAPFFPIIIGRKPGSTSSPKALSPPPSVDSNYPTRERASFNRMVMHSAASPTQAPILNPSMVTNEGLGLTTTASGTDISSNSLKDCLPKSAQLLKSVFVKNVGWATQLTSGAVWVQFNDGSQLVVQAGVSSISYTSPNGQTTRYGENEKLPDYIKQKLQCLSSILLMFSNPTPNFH
- experimental.details: KINOMEscan competition binding
- reported.conditions: compound 10.0 µM
Overview of reported kinase still bound, per cent of control across a group of molecules:
Form entry: value (%) — number only.

Consider the worked cases shown below.
Query string: GET /values?readout=kinase still bound, per cent of control&item= COc1cc(N2CCN(C)CC2)ccc1Nc1ncc2c(n1)N(C)c1ccccc1C(=O)N2C
Result string: 6.8

Query string: GET /values?readout=kinase still bound, per cent of control&item= COc1cc2ncn(-c3cc(OCc4ccccc4C(F)(F)F)c(C(N)=O)s3)c2cc1OC
Result string: 29

Query string: GET /values?readout=kinase still bound, per cent of control&item= C=CC(=O)Nc1cc(-n2c(=O)ccc3cnc4ccc(-c5cn[nH]c5)cc4c32)ccc1C
Result string: 66

Query string: GET /values?readout=kinase still bound, per cent of control&item= COc1cc(C(=O)N2CCC(N3CCN(C)CC3)CC2)ccc1Nc1ncc2c(n1)N(C)c1ccccc1C(=O)N2C
Result string: 0

Query string: GET /values?readout=kinase still bound, per cent of control&item= CCN(CC)CCCCNc1ncc2cc(-c3cc(OC)cc(OC)c3)c(NC(=O)NC(C)(C)C)nc2n1
Result string: 100

Query string: GET /values?readout=kinase still bound, per cent of control&item= COCC(=O)NC/C=C/c1ccc2ncnc(Nc3ccc(Oc4ccc(C)nc4)c(C)c3)c2c1
Result string: 74

Query string: GET /values?readout=kinase still bound, per cent of control&item= C[C@@H](Oc1cc(-c2cnn(C3CCNCC3)c2)cnc1N)c1c(Cl)ccc(F)c1Cl
Result string: 0.1

Query string: GET /values?readout=kinase still bound, per cent of control&item= O=C(Nc1cccc(Nc2ncc(Br)c(NCCc3cnc[nH]3)n2)c1)N1CCCC1
Result string: 0.7

Continue with the molecule presented below.
Query string: GET /values?readout=kinase still bound, per cent of control&item= O=c1cc(N2CCOCC2)oc2c(-c3cccc4c3sc3ccccc34)cccc12
Result string: 90

* * *

- measured.on: CDK4 CCND1 (human) (UniProt P11802+P24385)
- Sequence (P11802 whole entry, looked up): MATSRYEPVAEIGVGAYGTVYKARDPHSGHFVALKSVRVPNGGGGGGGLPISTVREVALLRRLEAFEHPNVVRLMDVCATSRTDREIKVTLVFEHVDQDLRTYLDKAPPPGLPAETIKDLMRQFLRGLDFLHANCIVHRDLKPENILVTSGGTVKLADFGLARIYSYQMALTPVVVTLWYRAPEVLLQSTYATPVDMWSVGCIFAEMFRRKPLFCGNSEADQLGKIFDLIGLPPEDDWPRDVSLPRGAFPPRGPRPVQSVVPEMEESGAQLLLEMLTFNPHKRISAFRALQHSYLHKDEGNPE
- Sequence (P24385 whole entry, looked up): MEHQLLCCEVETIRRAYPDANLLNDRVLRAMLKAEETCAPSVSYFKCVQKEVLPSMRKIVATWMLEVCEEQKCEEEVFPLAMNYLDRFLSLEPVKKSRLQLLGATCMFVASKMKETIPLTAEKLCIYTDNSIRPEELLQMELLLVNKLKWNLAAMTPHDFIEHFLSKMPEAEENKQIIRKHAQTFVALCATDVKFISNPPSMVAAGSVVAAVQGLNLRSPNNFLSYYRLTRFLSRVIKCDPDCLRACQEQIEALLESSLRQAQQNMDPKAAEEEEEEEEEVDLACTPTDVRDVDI
- experimental.details: KINOMEscan competition binding
- reported.conditions: compound 10.0 µM
Overview of reported kinase still bound, per cent of control across a group of molecules:
Form entry: value (%) — number only.

Consider the worked cases shown below.
Query string: GET /values?readout=kinase still bound, per cent of control&item= COc1cc(C(=O)N2CCC(N3CCN(C)CC3)CC2)ccc1Nc1ncc2c(n1)N(C)c1ccccc1C(=O)N2C
Result string: 100

Query string: GET /values?readout=kinase still bound, per cent of control&item= O=C1NC(=O)/C(=C/c2ccc3nccc(-c4ccncc4)c3c2)S1
Result string: 92

Query string: GET /values?readout=kinase still bound, per cent of control&item= CNC(=O)c1cc(Oc2ccc(NC(=O)Nc3ccc(Cl)c(C(F)(F)F)c3)cc2)ccn1
Result string: 65

Query string: GET /values?readout=kinase still bound, per cent of control&item= CCN1CCN(C(=O)Cc2ccc(Nc3ncc(F)c(Nc4ccc(C(=O)Nc5ccccc5Cl)cc4)n3)cc2)CC1
Result string: 34

Query string: GET /values?readout=kinase still bound, per cent of control&item= N#CCNC(=O)c1ccc(-c2ccnc(Nc3ccc(N4CCOCC4)cc3)n2)cc1
Result string: 13

New cases:
Query string: GET /values?readout=kinase still bound, per cent of control&item= COCC(=O)NC/C=C/c1ccc2ncnc(Nc3ccc(Oc4ccc(C)nc4)c(C)c3)c2c1
Result string: 100

Query string: GET /values?readout=kinase still bound, per cent of control&item= O=c1cc(N2CCOCC2)oc2c(-c3cccc4c3sc3ccccc34)cccc12
Result string: 100

Query string: GET /values?readout=kinase still bound, per cent of control&item= COc1cc2ncn(-c3cc(OCc4ccccc4C(F)(F)F)c(C(N)=O)s3)c2cc1OC
Result string: 91

Query string: GET /values?readout=kinase still bound, per cent of control&item= CN(C)C/C=C/C(=O)Nc1ccc(C(=O)Nc2cccc(Nc3nccc(-c4cccnc4)n3)c2)cc1
Result string: 100
